Test: PK study of Form A of Compound I in dogs
Assay type: in vivo
Conditions: beagle, dog, plasma, po, 75 mg/kg, PO dose of 75 mg/kg, 6 hr, Dog #1, read-out: plasma concentration
Measurement Kind: concentration at 6 hr (ng/mL)
Write the value in ng/mL as a bare number.

**Q:** Which concentration at 6 hr is listed for COC(=O)N[C@H](C(=O)N1CCC[C@H]1c1ncc(-c2ccc3cc(-c4ccc5nc([C@@H]6CCCN6C(=O)[C@@H](NC(=O)OC)C(C)C)[nH]c5c4)ccc3c2)[nH]1)C(C)C [Form A of Compound I] ?
**A:** 3590

* * *

Assay: PK study of Form A of Compound I in rats
Format: in vivo
Conditions: male, Sprague-Dawley, rat, plasma, po, 75 mg/kg, single PO dose of 75 mg/kg, male SD rats, 4 hr, Rat #1; read-out: plasma concentration
Measurement Kind: concentration at 4 h (ng/mL)
Write the value in ng/mL as a bare number.

**Q:** Which concentration at 4 h is listed for COC(=O)N[C@H](C(=O)N1CCC[C@H]1c1ncc(-c2ccc3cc(-c4ccc5nc([C@@H]6CCCN6C(=O)[C@@H](NC(=O)OC)C(C)C)[nH]c5c4)ccc3c2)[nH]1)C(C)C [Form A of Compound I] ?
**A:** 3680
